# tested-on: rat lens aldose reductase (RLAR) (Rattus norvegicus)
# Construct: The supernatant was collected and used as the RLAR; from tissue; host or cells: Sprague–Dawley rat lens homogenate, 10,000 x g supernatant
# measurement-notes: Determination of RLAR inhibition in vitro (NADPH decrease at 340 nm, DL-glyceraldehyde substrate)
# Type: biochemical
# Set-up: dose or concentration left out as unconfirmed
# assay-conditions: Table 2, printed under head DPPH/Experiments
Classify by measured inhibition: Met if it is equal to or exceeds 40%, Not met if it is smaller.

# input Is it the case that `O=c1cc(-c2ccc(O)cc2)oc2cc(O)cc(O)c12` has inhibition reaching or exceeding 40%?
# output Met

# input // next record C[C@@H]1O[C@@H](OC[C@H]2O[C@@H](Oc3c(-c4ccc(O)c(O)c4)oc4cc(O)cc(O)c4c3=O)[C@H](O)[C@@H](O)[C@@H]2O)[C@H](O)[C@H](O)[C@H]1O [Rutin (RT), rutin]
# output Not met

# input // next record `O=c1c(O)c(-c2ccc(O)cc2)oc2cc(O)cc(O)c12`
# output Not met

# input // next record `O=c1c(O[C@@H]2O[C@H](CO)[C@@H](O)[C@H](O)[C@H]2O)c(-c2ccc(O)cc2)oc2cc(O)cc(O)c12`
# output Met

# input // next record Oc1cc(O)c2c(c1)OC(c1ccc(O)c(O)c1)C(O)C2 (stereo not shown)
# output Not met

# input // next record O=C(O)[C@H]1O[C@@H](Oc2cc(O)c3c(=O)cc(-c4ccc(O)cc4)oc3c2)[C@H](O)[C@@H](O)[C@@H]1O [Apigenin-7-O-glucuronide (AGN), apigenin-7-O-glucuronide]
# output Not met

# input // next record `O=c1cc(-c2ccc(O)cc2)oc2c([C@@H]3O[C@H](CO)[C@@H](O)[C@H](O)[C@H]3O)c(O)cc(O)c12`
# output Not met

# input // next record `O=c1cc(-c2ccc(O)c(O)c2)oc2cc(O)cc(O)c12`
# output Met

# input // next record `O=c1c(O[C@@H]2O[C@H](CO)[C@H](O)[C@H](O)[C@H]2O)c(-c2ccc(O)c(O)c2)oc2cc(O)cc(O)c12`
# output Met

# input // next record O=C(O)[C@H]1O[C@@H](Oc2cc(O)c3c(=O)cc(-c4ccc(O)c(O)c4)oc3c2)[C@H](O)[C@@H](O)[C@@H]1O [Luteolin-7-O-glucuronide (LGN), luteolin-7-O-glucuronide]
# output Met

# input // next record O=c1cc(-c2ccc(O)c(O)c2)oc2cc(O[C@@H]3O[C@H](CO)[C@@H](O)[C@H](O)[C@H]3O)cc(O)c12 [Luteolin-7-O-glucoside (LGC), luteolin-7-O-glucoside]
# output Met

====

# tested-on: rat lens aldose reductase (RLAR) (Rattus norvegicus, UniProt P07943)
# Construct: The supernatant was collected and used as the RLAR; from tissue; host or cells: Sprague–Dawley rat lens homogenate, 10,000 x g supernatant
# measurement-notes: Determination of RLAR inhibition in vitro (NADPH decrease at 340 nm, DL-glyceraldehyde substrate);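 note: crude enzyme from Sprague–Dawley rat lens homogenate supernatant, absorbance read over 3 min in pH 6.2 potassium phosphate buffer with 1.6 mM NADPH and 25 mM substrate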
# Assay type: biochemical
# assay-conditions: Experiments
For each entry below, report its pIC50 value.
Field pIC50 (float): negative decimal logarithm of the concentration in molar.

# input Under rat lens aldose reductase (RLAR) (Rattus norvegicus, UniProt P07943): pIC50 value of `O=c1c(O)c(-c2ccc(O)cc2)oc2cc(O)cc(O)c12` ?
# output 4.82

# input // next record `O=c1c(O[C@@H]2O[C@H](CO)[C@H](O)[C@H](O)[C@H]2O)c(-c2ccc(O)c(O)c2)oc2cc(O)cc(O)c12`
# output 5.39

# input // next record O=c1cc(-c2ccc(O)cc2)oc2cc(O[C@@H]3O[C@H](CO)[C@@H](O)[C@H](O)[C@H]3O)cc(O)c12 [Apigenin-7-O-glucoside (AGC), apigenin-7-O-glucoside]
# output 5.37

# input // next record `O=c1c(O[C@@H]2O[C@H](CO)[C@@H](O)[C@H](O)[C@H]2O)c(-c2ccc(O)cc2)oc2cc(O)cc(O)c12`
# output 5.29

# input // next record O=c1cc(-c2ccc(O)c(O)c2)oc2cc(O[C@@H]3O[C@H](CO)[C@@H](O)[C@H](O)[C@H]3O)cc(O)c12 [Luteolin-7-O-glucoside (LGC), luteolin-7-O-glucoside]
# output 5.09

# input // next record `C[C@@H]1O[C@@H](Oc2c(-c3ccc(O)c(O)c3)oc3cc(O)cc(O)c3c2=O)[C@H](O)[C@H](O)[C@H]1O`
# output 6.70

# input // next record `O=c1c(O[C@@H]2O[C@H](CO)[C@@H](O)[C@H](O)[C@H]2O)c(-c2ccc(O)c(O)c2)oc2cc(O)cc(O)c12`
# output 5.29

# input // next record O=C(OC1OC2COC(=O)c3cc(O)c(O)c(O)c3-c3c(cc(O)c(O)c3O)C(=O)OC2C2OC(=O)c3cc(O)c(O)c(O)c3-c3c(cc(O)c(O)c3O)C(=O)OC12)c1cc(O)c(O)c(Oc2c(C(=O)OC3OC4COC(=O)c5cc(O)c(O)c(O)c5-c5c(cc(O)c(O)c5O)C(=O)OC4C4OC(=O)c5cc(O)c(O)c(O)c5-c5c(cc(O)c(O)c5O)C(=O)OC34)cc(O)c(O)c2O)c1 (stereo not drawn)
# output 5.80

# input // next record `O=c1cc(-c2ccc(O)cc2)oc2cc(O)cc(O)c12`
# output 5.49

# input // next record C[C@@H]1O[C@@H](OC[C@H]2O[C@@H](Oc3c(-c4ccc(O)c(O)c4)oc4cc(O)cc(O)c4c3=O)[C@H](O)[C@@H](O)[C@@H]2O)[C@H](O)[C@H](O)[C@H]1O [Rutin (RT), rutin]
# output 5.02

# input // next record `O=C(O)CC1(CC(=O)O)CCCC1`
# output 6.30

# input // next record O=C(O)[C@H]1O[C@@H](Oc2cc(O)c3c(=O)cc(-c4ccc(O)c(O)c4)oc3c2)[C@H](O)[C@@H](O)[C@@H]1O [Luteolin-7-O-glucuronide (LGN), luteolin-7-O-glucuronide]
# output 6.15
